Exercise: state measured cytotoxicity at 10 µM for each of the compounds provided.
# RUN_DESCRIPTION: Toxicity liver stage against HepG2, at 10uM
# Assay type: cell-based
# Set-up: test concentration 10 uM, cell line HepG2-A16-CD81EGFP
# DETAILS: human, HepG2-A16-CD81EGFP cells; read-out: INHIBITION
Numbers only, in %.

Some entries whose results are on file:
COMPOUND | QUANTITY_KIND | VALUE_MEASURED
CCc1nc(C)sc1C(=O)N1CCN(c2ncccc2C)CC1 | cytotoxicity at 10 µM | 1.39
CCCn1nnnc1CSc1nccn1C | cytotoxicity at 10 µM | -3.39

Count: 7. Required value per item: cytotoxicity at 10 µM.
1. CCN(Cc1nc2c(cnn2C)c(=O)[nH]1)c1cccc(F)c1
2. Cc1ccccc1CN1CC[C@@]2(O)CCN(C(=O)C3CCC3)C[C@H]2C1
3. Cc1cc(C)n(C2CN(CC(O)c3ccc(S(C)(=O)=O)cc3)C2)n1 (centres undefined)
4. CO[C@H]1CN(C(C)C)C[C@@H]1NC(=O)Nc1ccc(C(F)(F)F)cc1
5. COC(=O)C(O)C1CCN(CCc2ccc(C)cc2)CC1 (centres undefined)
6. O=C1N(C2CCCCC2)CCCC12CCN(S(=O)(=O)c1cccnc1)C2 (centres undefined)
7. CC(C)N1CCC(Cc2cncc(-c3cccc(C(=O)O)c3)n2)C1 (centres undefined)

1: -0.746; 2: 27.9; 3: -12.9; 4: 2.05; 5: 15.2; 6: 6; 7: 9.11

----------
# RUN_DESCRIPTION: Toxicity liver stage against HepG2, at 10uM
# Assay type: cell-based
# Design: test concentration 10 uM, cell line HepG2-A16-CD81EGFP
# DETAILS: human, HepG2-A16-CD81EGFP cells; read-out: INHIBITION
Exercise: state measured cytotoxicity at 10 µM for each of the compounds provided.
Numbers only, in %.

Count: 2. Required value per item: cytotoxicity at 10 µM.
1. COCC(=O)N1CCCCC1c1ccncn1 (configuration not stated)
2. O=C(NCc1ccc(-n2cncn2)nc1)c1ccoc1

[-27.8, -2.38]

Count: 3. Required value per item: cytotoxicity at 10 µM.
1. COCc1ncn2c1CN(S(=O)(=O)c1cccc(OC)c1)CC2
2. Cn1cc(CC(=O)N2CCC(Nc3cccnn3)CC2)c2ccccc21
3. Cc1cnn(CC2CCCN2CC(=O)Nc2cc(C(C)(C)C)no2)c1 (configuration not stated)

1: 3.47; 2: -9.24; 3: -7.76

----------
# RUN_DESCRIPTION: Toxicity liver stage against HepG2, at 10uM
# Type: cell-based
# Design: test concentration 10 uM, cell line HepG2-A16-CD81EGFP
# DETAILS: human, HepG2-A16-CD81EGFP cells; read-out: INHIBITION
QUANTITY_KIND: cytotoxicity at 10 µM (%)
Numbers only, in %.

Count: 5. Required value per item: cytotoxicity at 10 µM.
1. CCc1ncncc1C(=O)NCCN1CCC(C)CC1
2. CS(=O)(=O)CCN1CCc2c(ncn2C2CC2)C1
3. Cc1nccn1-c1nccnc1C1CCN(Cc2ccc(F)cc2)CC1
4. Cn1cc(Cl)cc1C(=O)N1CCN(Cc2cccs2)CC1
5. CCc1nn(C)c2[nH]nc(NC(=O)c3cccnc3OCC(C)C)c12

1. -15.6
2. -6.06
3. -5.43
4. -8.1
5. 3.94
